Origin of values: paper PMC12497685

System: SARS‐CoV‐2 spike protein pseudotyped lentivirus, Delta variant
Assay: organism not typed
Assay type: cell-based
Conditions: HEK-293T, read-out: Pseudovirus assay, IC50, Delta
Assay readout: pIC50
Just the number, please; pIC50 means minus log10 of the concentration in mol/L.

INPUT: State, in one line, measured pIC50 of COc1cc2c3cc1Oc1c(O)c(OC)cc4c1[C@@H](Cc1ccc(O)c(c1)Oc1ccc(cc1)C[C@@H]3N(C)CC2)N(C)CC4 [Compound 19, (+)‐obamegine]
OUTPUT: 5.58

INPUT: Specify reported pIC50 for the compound shown: COc1cc2c3cc1Oc1c(OC)c(OC)cc4c1[C@@H](Cc1ccc(O)c(c1)Oc1ccc(cc1)C[C@@H]3N(C)CC2)N(C)CC4 [Compound 17, (+)‐berbamine]
OUTPUT: 5.59

INPUT: Please look at this compound and report its pIC50: COc1ccc2cc1Oc1ccc(cc1)C[C@H]1c3c(cc4c(c3Oc3cc5c(cc3OC)CCN(C)[C@@H]5C2)OCO4)CCN1C [Cepharantine, Cepharanthine, reference compound]
OUTPUT: 5.79
